# assay protocol: Cytotoxicity (MTT, 48 h) against HPLF non-malignant cells
# Format: cell-based, human
# condition notes: human, normal periodontal ligament fibroblasts (HPLF), mean ± S.D. of triplicate
Each record here notes measured CC50 at 48 h.
# value in µM; strip the unit string

Reference set, count: 4
I am curious: what CC50 at 48 h value has been reported for O=C1C(=Cc2ccccc2)CNCC1=Cc1ccccc1 [Compound 2a, 3,5-bis(benzylidene)-4-piperidone] ?
9.1

Item under review: COc1ccc(/C=C2\CN(C(=O)C(Cl)Cl)C/C(=C\c3ccc(OC)c(OC)c3)C2=O)cc1OC [Compound 1g] . Reported CC50 at 48 h?
2.83

// lookup CC50 at 48 h for O=C1/C(=C/c2ccc(Cl)cc2)CN(C(=O)C(Cl)Cl)C/C1=C\c1ccc(Cl)cc1 [Compound 1d]
1.29

What value of CC50 at 48 h has been reported for the following compound? O=C1/C(=C/c2ccc([N+](=O)[O-])cc2)CN(C(=O)C(Cl)Cl)C/C1=C\c1ccc([N+](=O)[O-])cc1 [Compound 1k]
0.76

Now consider the entry below.
For the compound shown here, CC(=O)N1C/C(=C\c2ccccc2)C(=O)/C(=C/c2ccccc2)C1 [Compound 2b] , give the reported CC50 at 48 h.
5.6
